Biological target: Sa-ClpP (Staphylococcus aureus)
Construct: made in house; host or cells: E. coli BL21(DE3)
Sequence (Q2G036 whole entry): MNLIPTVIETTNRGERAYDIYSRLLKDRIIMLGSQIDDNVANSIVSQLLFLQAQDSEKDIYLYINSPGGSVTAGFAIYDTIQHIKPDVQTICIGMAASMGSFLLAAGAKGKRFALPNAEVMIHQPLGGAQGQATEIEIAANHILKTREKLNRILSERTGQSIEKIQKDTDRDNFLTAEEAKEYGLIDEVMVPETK
Assay: Sa-ClpP casein-BODIPY ClpP activation assay, method variant not marked in Table 5
Type: biochemical, S. aureus
Details: values without ** or † mark; assay variant not stated; read-out: ClpP Activation EC50
*1 amine or outer side, *2 acyl side, *3 side chain or, on linkers, in order; H or OH if unused. Where a SMILES comes first, the peptide text is derived from it. Bridges are numbered along the chain shown (N, C = ends). [ ]: non-standard residue; d: D form. The star is where a group is joined. Phe(3,5-F2) = N[C@@H](Cc1cc(F)cc(F)c1)C(=O)O; NMepT = CN[C@H](C(=O)O)[C@@H](C)OP(=O)(O)O; Morpholine(3S-CO) = O=C(O)[C@@H]1COCCN1; Pro(4S-Me) = C[C@@H]1CN[C@H](C(=O)O)C1; Pro(4R-Me) = C[C@H]1CN[C@H](C(=O)O)C1; NH(3,4-Me2-phenyl) = Cc1ccc(N*)cc1C; NMeaThr = CN[C@H](C(=O)O)[C@H](C)O; Hyp = O=C(O)[C@@H]1C[C@@H](O)CN1; NMeT = CN[C@H](C(=O)O)[C@@H](C)O; Heptenoyl(2E) = CCCC/C=C/C(=O)*; NH(4-Me-phenyl) = Cc1ccc(N*)cc1; aThr = C[C@H](O)[C@H](N)C(=O)O; X13 = c1nc2cc(N*)ccc2[nH]1; Pip = O=C(O)[C@@H]1CCCCN1; X8 = c1cc2c(cc1N*)CCO2; CO = O=C([*:1])[*:2]; X7 = CC/C=C/C(=O)*
Quick reference for pEC50 among some compounds
API: returns pEC50 as number; meaning -log10 of concentration in mol/L.

• Cc1ccc(NC(=O)N[C@@H](Cc2cc(F)cc(F)c2)C(=O)N[C@H]2COC(=O)[C@@H]3C[C@@H](C)CN3C(=O)[C@H](C)NC(=O)C3CCCCN3C(=O)[C@@H]3C[C@@H](O)CN3C2=O)cc1 (stereo partly drawn) = 6.17
• CC/C=C/C(=O)N[C@@H](Cc1cc(F)cc(F)c1)C(=O)N[C@@H]1C(=O)N2C[C@H](O)C[C@H]2C(=O)N2CCCC[C@H]2C(=O)N[C@@H](C)C(=O)N2C[C@H](C)C[C@H]2C(=O)O[C@H]1C [Compound 300] (X7-[Phe(3,5-F2)][aThr][Hyp][Pip]A[Pro(4R-Me)]; ester 2-C) = 6.36
• Cc1ccc(NC(=O)N[C@@H](Cc2cc(F)cc(F)c2)C(=O)N[C@@H]2C(=O)N3C[C@H](O)C[C@H]3C(=O)N3CCCC[C@H]3C(=O)N[C@@H](C)C(=O)N3C[C@H](C)C[C@H]3C(=O)O[C@H]2C)cc1C [Compound 212] ({NH(3,4-Me2-phenyl)-CO}-[Phe(3,5-F2)][aThr][Hyp][Pip]A[Pro(4R-Me)]; ester 2-C) = 6.30
• Cc1ccc(NC(=O)N[C@@H](Cc2cc(F)cc(F)c2)C(=O)N[C@@H]2C(=O)N3CCC[C@H]3C(=O)N3CCCC[C@H]3C(=O)N[C@@H](C)C(=O)N3C[C@H](C)C[C@H]3C(=O)O[C@H]2C)cc1 [Compound 209] ({NH(4-Me-phenyl)-CO}-[Phe(3,5-F2)][aThr]P[Pip]A[Pro(4R-Me)]; ester 2-C) = 6.44
• C[C@@H]1C[C@H]2C(=O)O[C@@H](C)[C@H](NC(=O)[C@H](Cc3cc(F)cc(F)c3)NC(=O)Nc3ccc4c(c3)CCO4)C(=O)N3CCC[C@H]3C(=O)N3CCCC[C@H]3C(=O)N[C@@H](C)C(=O)N2C1 [Compound 305] ({X8-CO}-[Phe(3,5-F2)][aThr]P[Pip]A[Pro(4R-Me)]; ester 2-C) = 6.32
• Cc1ccc(NC(=O)N[C@@H](Cc2cc(F)cc(F)c2)C(=O)N[C@@H]2C(=O)N3CCC[C@H]3C(=O)N(C)[C@@H]([C@H](C)O)C(=O)N[C@@H](C)C(=O)N3C[C@H](C)C[C@H]3C(=O)O[C@H]2C)cc1 [Compound 208] ({NH(4-Me-phenyl)-CO}-[Phe(3,5-F2)][aThr]P[NMeaThr]A[Pro(4R-Me)]; ester 2-C) = 6.32
• CCCC/C=C/C(=O)N[C@@H](Cc1cc(F)cc(F)c1)C(=O)N[C@@H]1C(=O)N2CCC[C@H]2C(=O)N(C)[C@@H]([C@@H](C)O)C(=O)N[C@@H](C)C(=O)N2C[C@H](C)C[C@H]2C(=O)O[C@H]1C [Compound 308] ({Heptenoyl(2E)}-[Phe(3,5-F2)][aThr]P[NMeT]A[Pro(4R-Me)]; ester 2-C) = 6.55
• C[C@@H]1C[C@H]2C(=O)O[C@@H](C)[C@H](NC(=O)[C@H](Cc3cc(F)cc(F)c3)NC(=O)Nc3ccc4[nH]cnc4c3)C(=O)N3CCC[C@H]3C(=O)N3CCCC[C@H]3C(=O)N[C@@H](C)C(=O)N2C1 [Compound 303] ({X13-CO}-[Phe(3,5-F2)][aThr]P[Pip]A[Pro(4R-Me)]; ester 2-C) = 5.84
• CCCC/C=C/C(=O)N[C@@H](Cc1cc(F)cc(F)c1)C(=O)N[C@@H]1C(=O)N2C[C@H](O)C[C@H]2C(=O)N2CCCC[C@H]2C(=O)N[C@@H](C)C(=O)N2C[C@H](C)C[C@H]2C(=O)O[C@H]1C [Compound 301] ({Heptenoyl(2E)}-[Phe(3,5-F2)][aThr][Hyp][Pip]A[Pro(4R-Me)]; ester 2-C) = 6.38
• Cc1ccc(NC(=O)N[C@@H](Cc2cc(F)cc(F)c2)C(=O)N[C@H]2COC(=O)[C@@H]3C[C@@H](C)CN3C(=O)[C@H](C)NC(=O)[C@@H]3COCCN3C(=O)[C@@H]3C[C@@H](O)CN3C2=O)cc1 [Compound 317] ({NH(4-Me-phenyl)-CO}-[Phe(3,5-F2)]S[Hyp][Morpholine(3S-CO)]A[Pro(4R-Me)]; ester 2-C) = 6.42

Request: Provide pEC50 value for the following compound: Cc1ccc(NC(=O)N[C@@H](Cc2cc(F)cc(F)c2)C(=O)N[C@@H]2C(=O)N3C[C@H](O)C[C@H]3C(=O)N3CCOC[C@H]3C(=O)N[C@@H](C)C(=O)N3C[C@H](C)C[C@H]3C(=O)O[C@H]2C)cc1C [Compound 215] ({NH(3,4-Me2-phenyl)-CO}-[Phe(3,5-F2)][aThr][Hyp][Morpholine(3S-CO)]A[Pro(4R-Me)]; ester 2-C)
Result: 6.30

Request: Provide pEC50 value for the following compound: Cc1ccc(NC(=O)N[C@@H](Cc2cc(F)cc(F)c2)C(=O)N[C@@H]2C(=O)N3CCC[C@H]3C(=O)N(C)[C@@H]([C@@H](C)OP(=O)(O)O)C(=O)N[C@@H](C)C(=O)N3C[C@@H](C)C[C@H]3C(=O)O[C@H]2C)cc1 [Compound 188] ({NH(4-Me-phenyl)-CO}-[Phe(3,5-F2)][aThr]P[NMepT]A[Pro(4S-Me)]; ester 2-C)
Result: 5.74
